B1: glmS ribozyme (parent)
chain: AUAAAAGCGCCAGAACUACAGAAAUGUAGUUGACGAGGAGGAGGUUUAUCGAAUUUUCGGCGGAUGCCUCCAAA

Variants of: B1
Assay remarks: self-cleavage kobs at 40 uM GlcN6P; higher = faster cleavage; RNA array
Condition description: with glucosamine-6-phosphate
This sample holds only a part of the variants without activity.
Parameter measured: self-cleavage kobs at 40 uM GlcN6P

// known answers, use as guide
U31C U55G
0.000126 s⁻¹
G41U C50U G59U G66U
< 1e-05 s⁻¹
A14G C34A G38U
< 1e-05 s⁻¹
A15U A52U C70A
< 1e-05 s⁻¹
G40U U46G
2.93e-05 s⁻¹

Value of self-cleavage kobs at 40 uM GlcN6P reported for the variant G7U A33U A64G C70G is < 1e-05 s⁻¹

Cited source: the supplement of paper PMC7125110
